target: HLA-A*02:01 (Homo sapiens, UniProt P04439, D140Y/D185E/D98H/E176V/E277Q/G131W/G231S/I119V/I121R/I166T/I218V/L300P/L318F/N151K/N90K/P208A/P217A/Q86G/Q94H/R138H/R169H/T345S); assay: MHC binding assay (UV-ligand exchange, ELISA of stabilized MHC complexes); conditions: MHC class I binding score; binding to HLA-A*02:01 ranged by peptide exchange yield (UV-ligand exchange, ELISA)

{"substance": "108 (ALFPGVALLLA; listed as Homo sapiens) [compound 108]", "Peptide exchange": "″++++″ (≥75% = ++++)"}
{"substance": "70 (GLLDYPVGV; listed as Homo sapiens) [compound 70]", "Peptide exchange": "″+++″ (≥50% = +++)"}
{"substance": "164 (ALLPQPKNLTV; listed as Homo sapiens) [compound 164]", "Peptide exchange": "″+++″ (≥50% = +++)"}
{"substance": "242 (AIAYILQGV; listed as Homo sapiens) [compound 242]", "Peptide exchange": "″++″ (≥20% = ++)"}
{"substance": "365 (YVIDQGETDVYV; listed as Homo sapiens) [compound 365]", "Peptide exchange": "″+++″ (≥50% = +++)"}
{"substance": "484 (SLIEKVTQL; listed as Homo sapiens) [compound 484]", "Peptide exchange": "″+++″ (≥50% = +++)"}
{"substance": "56 (KLYEGIPVLL; listed as Homo sapiens) [compound 56]", "Peptide exchange": "″++++″ (≥75% = ++++)"}
{"substance": "575 (YLISQVEGHQV; listed as Homo sapiens) [compound 575]", "Peptide exchange": "″+++″ (≥50% = +++)"}
{"substance": "494 (ALQPEPIKV; listed as Homo sapiens) [compound 494]", "Peptide exchange": "″++″ (≥20% = ++)"}

* * *

molecular target: HLA-A*02:01 (Homo sapiens, UniProt P04439, D140Y/D185E/D98H/E176V/E277Q/G131W/G231S/I119V/I121R/I166T/I218V/L300P/L318F/N151K/N90K/P208A/P217A/Q86G/Q94H/R138H/R169H/T345S); experiment: MHC binding assay (UV-ligand exchange, ELISA of stabilized MHC complexes); conditions: MHC class I binding score; binding to HLA-A*02:01 ranged by peptide exchange yield (UV-ligand exchange, ELISA)
measured_quantity: Peptide exchange

{"substance": "44 (ILDPISSGFLL; listed as Homo sapiens) [compound 44]", "reported_value": "″++″ (≥20% = ++)"}
{"substance": "145 (FLATSGTLAGI; listed as Homo sapiens) [compound 145]", "reported_value": "″++″ (≥20% = ++)"}
{"substance": "254 (TLLAFIMEL; listed as Homo sapiens) [compound 254]", "reported_value": "″+++″ (≥50% = +++)"}
{"substance": "496 (FLVEKQPPQV; listed as Homo sapiens) [compound 496]", "reported_value": "″+++″ (≥50% = +++)"}
{"substance": "584 (ALAEVAAMENV; listed as Homo sapiens) [compound 584]", "reported_value": "″+++″ (≥50% = +++)"}
{"substance": "121 (GVVDPRAISVL; listed as Homo sapiens) [compound 121]", "reported_value": "″++″ (≥20% = ++)"}
{"substance": "574 (YLLQEPPRTV; listed as Homo sapiens) [compound 574]", "reported_value": "″++″ (≥20% = ++)"}
{"substance": "80 (FLYDNLVESL; listed as Homo sapiens) [compound 80]", "reported_value": "″++″ (≥20% = ++)"}
{"substance": "2 (SLLEADPFL; listed as Homo sapiens) [compound 2]", "reported_value": "″+++″ (≥50% = +++)"}
{"substance": "326 (FLPEALDFV; listed as Homo sapiens) [compound 326]", "reported_value": "″+++″ (≥50% = +++)"}
{"substance": "385 (SLLEQGLVEA; listed as Homo sapiens) [compound 385]", "reported_value": "″++″ (≥20% = ++)"}
{"substance": "322 (TLMTSLPAL; listed as Homo sapiens) [compound 322]", "reported_value": "″+++″ (≥50% = +++)"}
{"substance": "226 (MLYVVPIYL; listed as Homo sapiens) [compound 226]", "reported_value": "″++″ (≥20% = ++)"}
{"substance": "60 (SLTIDGIYYV; listed as Homo sapiens) [compound 60]", "reported_value": "″++++″ (≥75% = ++++)"}
{"substance": "335 (YSLSSVVTV; listed as Homo sapiens) [compound 335]", "reported_value": "″+++″ (≥50% = +++)"}
{"substance": "371 (FLQAHLHTA; listed as Homo sapiens) [compound 371]", "reported_value": "″++++″ (≥75% = ++++)"}
{"substance": "304 (MTLGQIYYL; listed as Homo sapiens) [compound 304]", "reported_value": "″+++″ (≥50% = +++)"}
{"substance": "142 (FLFATPVFI; listed as Homo sapiens) [compound 142]", "reported_value": "″+++″ (≥50% = +++)"}
{"substance": "311 (RLYTGMHTV; listed as Homo sapiens) [compound 311]", "reported_value": "″+++″ (≥50% = +++)"}
{"substance": "111 (YVWGFYPAEV; listed as Homo sapiens) [compound 111]", "reported_value": "″+++″ (≥50% = +++)"}
{"substance": "13 (YLMDESLNL; listed as Homo sapiens) [compound 13]", "reported_value": "″+++″ (≥50% = +++)"}
{"substance": "239 (AAFAGKLLSV; listed as Homo sapiens) [compound 239]", "reported_value": "″+++″ (≥50% = +++)"}
{"substance": "161 (ALLEGVNTV; listed as Homo sapiens) [compound 161]", "reported_value": "″+++″ (≥50% = +++)"}
{"substance": "375 (SLTETIEGV; listed as Homo sapiens) [compound 375]", "reported_value": "″++″ (≥20% = ++)"}
{"substance": "620 (KLLNKIYEA; listed as Homo sapiens) [compound 620]", "reported_value": "″++++″ (≥75% = ++++)"}
{"substance": "82 (FLSSVTYNL; listed as Homo sapiens) [compound 82]", "reported_value": "″+++″ (≥50% = +++)"}
{"substance": "33 (VLLSLLEKV; listed as Homo sapiens) [compound 33]", "reported_value": "″++″ (≥20% = ++)"}
{"substance": "289 (VLLEIEDLQV; listed as Homo sapiens) [compound 289]", "reported_value": "″++++″ (≥75% = ++++)"}
{"substance": "506 (KLLGKVETA; listed as Homo sapiens) [compound 506]", "reported_value": "″+++″ (≥50% = +++)"}
{"substance": "165 (SLLDEIRAV; listed as Homo sapiens) [compound 165]", "reported_value": "″+++″ (≥50% = +++)"}
{"substance": "38 (FLLEDDIHVS; listed as Homo sapiens) [compound 38]", "reported_value": "″+++″ (≥50% = +++)"}
{"substance": "185 (FLIDDKGYTL; listed as Homo sapiens) [compound 185]", "reported_value": "″++″ (≥20% = ++)"}
{"substance": "217 (ALIHPVSTV; listed as Homo sapiens) [compound 217]", "reported_value": "″++″ (≥20% = ++)"}
{"substance": "28 (QLLDETSAITL; listed as Homo sapiens) [compound 28]", "reported_value": "″+++″ (≥50% = +++)"}
{"substance": "548 (ALWENPESGEL; listed as Homo sapiens) [compound 548]", "reported_value": "″++″ (≥20% = ++)"}
{"substance": "295 (VLDRESPNV; listed as Homo sapiens) [compound 295]", "reported_value": "″+++″ (≥50% = +++)"}
{"substance": "307 (ALPVSLPQI; listed as Homo sapiens) [compound 307]", "reported_value": "″+++″ (≥50% = +++)"}
{"substance": "577 (VMFEDGVLMRL; listed as Homo sapiens) [compound 577]", "reported_value": "″+++″ (≥50% = +++)"}
